target: SHP2 (Homo sapiens (Human), UniProt Q06124); experiment: SHP2 Allosteric Inhibition Assay (DiFMUP prompt fluorescence); details: 0.25 nM SHP2 activated with 0.5 μM peptide IRS1_pY1172(dPEG8)pY1222; substrate DiFMUP 100 μM; 25° C.
Sequence (Q06124 whole entry): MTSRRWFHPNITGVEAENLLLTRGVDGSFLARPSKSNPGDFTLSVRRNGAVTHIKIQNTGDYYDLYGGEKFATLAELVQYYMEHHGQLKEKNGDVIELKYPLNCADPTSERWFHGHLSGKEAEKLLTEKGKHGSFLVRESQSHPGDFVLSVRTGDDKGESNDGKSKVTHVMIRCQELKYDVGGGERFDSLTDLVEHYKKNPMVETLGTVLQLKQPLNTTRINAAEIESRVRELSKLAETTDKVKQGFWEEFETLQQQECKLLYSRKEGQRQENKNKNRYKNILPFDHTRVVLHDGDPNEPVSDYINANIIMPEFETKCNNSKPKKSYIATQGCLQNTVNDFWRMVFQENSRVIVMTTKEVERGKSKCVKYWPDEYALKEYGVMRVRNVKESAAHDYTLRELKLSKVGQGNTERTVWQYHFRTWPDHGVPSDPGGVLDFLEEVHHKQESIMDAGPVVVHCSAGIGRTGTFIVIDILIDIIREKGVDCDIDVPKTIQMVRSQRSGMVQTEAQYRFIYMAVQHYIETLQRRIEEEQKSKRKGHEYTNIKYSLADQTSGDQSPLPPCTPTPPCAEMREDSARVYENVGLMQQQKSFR
METRIC: IC50

The following compounds have reported results that may help.
• C[C@@H]1OCC2(CCN(c3cnc4c(N5CCN(C)c6nnccc65)n[nH]c4n3)CC2)[C@@H]1N = < 1000 nM
• C[C@@H]1OCC2(CCN(c3cnc4c(N5CCN(CCS(C)(=O)=O)c6cc(C#N)ccc65)n[nH]c4n3)CC2)[C@@H]1N = < 1000 nM
• C[C@@H]1OCC2(CCN(c3cnc4c(N5CCc6ccc(C#N)cc6C5)n[nH]c4n3)CC2)[C@@H]1N = < 1000 nM
• CNC(=O)N1CCN(c2n[nH]c3nc(N4CCC5(CC4)CO[C@@H](C)[C@H]5N)cnc23)c2ncccc21 = 1000 to 10000 nM
• CC1(CN)CCN(c2cnc3c(N4CCCc5c4ccnc5Cl)n[nH]c3n2)CC1 = < 1000 nM

Q: What IC50 value was documented for this compound, CC1(CO)CCN(c2cnc3c(N4CCCc5ncccc54)n[nH]c3n2)CC1 ?
Result: ≥ 10000 nM

Q: Which IC50 value belongs to C[C@@H]1OCC2(CCN(c3cnc4c(N5CCN(C)c6nc(-c7cnn(C)c7)ccc65)n[nH]c4n3)CC2)[C@@H]1N ?
Result: < 1000 nM

Q: Given the compound C[C@@H]1OCC2(CCN(c3cnc4c(N5CC(=O)Nc6cnccc65)n[nH]c4n3)CC2)[C@@H]1N , what is its reported IC50?
Result: < 1000 nM

Q: What does the record list as IC50 for C[C@@H]1OCC2(CCN(c3cnc4c(N5CCCc6c([C@H]7CCOC7)cccc65)n[nH]c4n3)CC2)[C@@H]1N ?
Result: < 1000 nM

Q: Form field: reported IC50 of C[C@@H]1OCC2(CCN(c3cnc4c(N5CCCc6c5ccc(C#N)c6S(C)(=O)=O)n[nH]c4n3)CC2)[C@@H]1N
Result: 1000 to 10000 nM

---

target: SHP2 (Homo sapiens (Human), UniProt Q06124); assay: SHP2 Allosteric Inhibition Assay (DiFMUP prompt fluorescence); conditions: 0.25 nM SHP2 activated with 0.5 μM peptide IRS1_pY1172(dPEG8)pY1222; substrate DiFMUP 100 μM; 25° C.
pIC50: −log10 of the molar value. Counter-ions that a name gives are not always drawn.
METRIC: pIC50

// known answers, use as guide
* C[C@@H]1OCC2(CCN(c3cnc4c(N5CCCc6c5ccnc6C#N)n[nH]c4n3)CC2)[C@@H]1N [Compound 228] | > 6.00
* C[C@@H]1OCC2(CCN(c3cnc4c(N5CCCc6c5cccc6N(C)S(C)(=O)=O)n[nH]c4n3)CC2)[C@@H]1N [Compound 374] | > 6.00
* NC(=O)C1CCCN(c2cnc3c(N4CCCc5ncccc54)n[nH]c3n2)C1 (stereo not shown) [Compound 149] | ≤ 5.00

Moving on to the next molecule.
Q: I have this molecule here, C[C@@H]1OCC2(CCN(c3cnc4c(N5CCCc6nc(C7=CCCCC7)ccc65)n[nH]c4n3)CC2)[C@@H]1N [Compound 396, hydrochloride] , and I need its recorded pIC50.
Result: > 6.00

Cited source for all entries: patent US11591336B2
